assay_explanation: Toxicokinetic evaluation of 14-day repeated intragastric administration to SD rats
Format: in vivo
condition_set: both sexes, SD, rat, plasma, po, 3 mg/kg, repeated intragastric 3.0 mg/kg, Day 1, read-out: Residence time MRT
measured_metric: MRT at 1 day
Number first, unit second: that is the form wanted.

[Q] Fill in MRT at 1 day for record CC(C)n1c(=O)cc(N[C@@H](C)c2ccccc2)[nH]c1=O [MYK-461, reference compound]
[A] 43.1 h

* * *

assay_explanation: Toxicokinetic evaluation of 14-day repeated intragastric administration to SD rats
Type: in vivo
condition_set: both sexes, SD, rat, plasma, po, 30 mg/kg, repeated intragastric 30 mg/kg, Day 1, read-out: Half-life T1/2 (converted)
measured_metric: half-life (h)
Answers are plain numbers, in h.

[Q] Fill in half-life for record Cc1ccc(F)c([C@H](C)Nc2nc(=O)n(C3CCOCC3)c(=O)[nH]2)c1 [Example 16]
[A] 5.6
